System: UO-31 renal
Assay: NCI tumour cell line growth inhibition, 48 h
assay-readout: TGI

Reference set, count: 5
Annotate the molecule C[C@H]1[C@H](C)CC[C@]2(C(=O)OC3OC(CO)C(O)C(O)C3O)CC[C@]3(C)C(=CC[C@@H]4[C@@]5(C)C[C@@H](O)[C@@H]6OC(=O)c7cc(O)c(O)c(O)c7-c7c(cc(O)c(O)c7O)C(=O)OC[C@]6(CO)[C@@H]5CC[C@]43C)[C@H]12 (stereo not given in full) with its measured TGI.
> 100 µM

Annotate the molecule CC(=Nc1ccccc1)C1=C(O)C(Cc2ccc(F)cc2)NC1=O (stereo not given) with its measured TGI.
> 100 µM

Annotate the molecule `COc1ccc(-c2c3c(nc4[nH]c(=S)[nH]c(=S)c24)CCCC3)cc1OC` with its measured TGI.
> 100 µM

Annotate the molecule `COc1ccc2c(c1)c(=O)c1c(NCCCN(C)C)ccc3ncn2c31` with its measured TGI.
16.1 µM

Annotate the molecule `COc1ccc(OCC(C)(C)O)cc1` with its measured TGI.
> 100 µM

New cases:
Annotate the molecule `CC(C)=CCc1c(O)c(C(=O)CC(C)C)c(O)c2c(-c3ccccc3)cc(=O)oc12` with its measured TGI.
> 50 µM

Annotate the molecule C=CCN(c1cc(OC)c2c(c1[N+](=O)[O-])C(C)(SC)C(=O)N2)S(C)(=O)=O (stereo not given) with its measured TGI.
> 100 µM

Annotate the molecule CS(=O)(=O)CCC(N)P(=O)(O)O (stereo not given) with its measured TGI.
> 100 µM

Annotate the molecule CC(C)C1NC(=O)[C@H](C)OC(=O)[C@@H](C(C)C)NC(=O)[C@@H](C)OC(=O)C(C(C)C)NC(=O)[C@H](C)OC1=O (stereo not given in full) with its measured TGI.
> 100 µM

Annotate the molecule `ClCCc1ccccc1CC1=NCCc2ccccc21` with its measured TGI.
38.3 µM

###

Test system: SK-MEL-28 melanoma
Assay: NCI tumour cell line growth inhibition, 48 h
Here, each record is paired with measured TGI data.

Annotate the compound O=P(O)(O)CC1OC(CO)C(O)C1O (stereo unspecified) with its measured TGI.
> 100 µM

Annotate the compound `CC(C)=CCc1c(O)c(C(=O)CC(C)C)c(O)c2c(-c3ccccc3)cc(=O)oc12` with its measured TGI.
> 50 µM

New cases:
Annotate the compound `COc1c(Cl)[c]([Hg][O]C(C)=O)c(NCC(C)=O)c(OC)[c]1[Hg][O]C(C)=O` with its measured TGI.
26.2 µM

Annotate the compound `c1ccc(N2N=C3N(c4ccccc4)C2N3c2ccccc2)cc1` with its measured TGI.
43.4 µM

Annotate the compound `CC1=CC(=O)/C(=C/N2C(=O)CNC2=S)C(=O)O1` with its measured TGI.
> 100 µM

Annotate the compound CC(CCC(=O)O)c1ccc(Br)cc1 (stereo unspecified) with its measured TGI.
> 100 µM

###

System: CAKI-1 renal
Assay: NCI tumour cell line growth inhibition, 48 h
Here, each record is paired with measured TGI data.

Annotate the compound CC1OC(OC2C[C@](O)(C(=O)CBr)Cc3c(O)c4c(c(O)c32)C(=O)c2ccccc2C4=O)C(F)C(O)C1O (some centres not stated) with its measured TGI.
49 µM

Annotate the compound O=C(O)CNC(=O)C1NC(C(F)(F)F)(C(F)(F)F)OC1(C(F)(F)F)C(F)(F)F (configuration not stated) with its measured TGI.
> 100 µM

Annotate the compound `CCOc1ccc(N=Cc2ccc3ccccc3n2)cc1` with its measured TGI.
> 100 µM

Annotate the compound `CCSc1nc(C)nc2c1sc1nc3ccccc3n12` with its measured TGI.
> 100 µM

New cases:
Annotate the compound `O=C1c2ccccc2-c2c1c1ccc([N+](=O)[O-])cc1c(=O)n2CCCn1ccnc1` with its measured TGI.
0.807 µM

Annotate the compound `Cc1ccc(NC(=S)N=Nc2c(O)[nH]c3ccccc23)cc1` with its measured TGI.
> 100 µM

Annotate the compound `O=C(COC(=O)c1cccc2c(=O)c3ccccc3[nH]c12)Nc1ccc(S(=O)(=O)Nc2ncccn2)cc1` with its measured TGI.
> 100 µM

Data provenance: PubChem BioAssay (NCI)
